Ok so here's the combined literature set: IC50 for UniProt:Q95214.
Target: UniProt:Q95214
Sequence (Q95214 whole entry): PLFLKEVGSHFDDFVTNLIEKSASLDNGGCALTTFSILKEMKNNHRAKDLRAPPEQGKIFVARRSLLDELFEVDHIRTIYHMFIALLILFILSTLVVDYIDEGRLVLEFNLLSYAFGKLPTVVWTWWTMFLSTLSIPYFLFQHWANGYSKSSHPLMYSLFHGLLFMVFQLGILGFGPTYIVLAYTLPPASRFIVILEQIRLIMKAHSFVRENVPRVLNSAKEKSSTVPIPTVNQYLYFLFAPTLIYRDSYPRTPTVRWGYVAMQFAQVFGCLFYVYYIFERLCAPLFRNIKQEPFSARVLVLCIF
Values of IC50 strictly less than 100 nM map to true (1), and values of at least 100 nM map to false (0).

Example results:
structureAsSmiles | class
CC(C)c1cccc(C(C)C)c1NC(=O)Nc1nc2ccccc2n1-c1ccccc1C(F)(F)F | true (1)
CCCCCCCCN1CCc2c(C)c(CC(=O)O)c(C)c(NC(=O)C(C)(C)C)c21 | false (0)
c1ccc(-c2nc(SCCCn3cccn3)[nH]c2-c2ccccc2)cc1 | false (0)

Ask: # check: IC50 < 100 nM for CC(C)c1cccc(C(C)C)c1NC(=O)NCC1(c2ccc(C(F)(F)F)cc2)CCCC1
Reply: true (1)

Ask: # check: IC50 < 100 nM for CC(=O)OCCN(CCOC(C)=O)Cc1cccc(C2(CNC(=O)Nc3c(C(C)C)cccc3C(C)C)CCCC2)c1
Reply: true (1)

Ask: # check: IC50 < 100 nM for CC(C)c1cccc(C(C)C)c1NC(=O)NCC1(c2cccc(C(=O)O)c2)CCCC1
Reply: false (0)

Ask: # check: IC50 < 100 nM for CC(C)c1cccc(C(C)C)c1NC(=O)Nc1nc2ccccc2n1-c1ccccc1Br
Reply: true (1)

Ask: # check: IC50 < 100 nM for CCCCCNC(=O)Nc1ccc(OCCCn2cnc(-c3ccccc3)c2C)cc1N(C)C
Reply: false (0)

* * *

Ok so here's the combined literature set: IC50 for Acyl-CoA:cholesterol acyltransferase (Oryctolagus cuniculus, UniProt Q95214).
Molecular target: Acyl-CoA:cholesterol acyltransferase (Oryctolagus cuniculus, UniProt Q95214)
Sequence (Q95214 whole entry): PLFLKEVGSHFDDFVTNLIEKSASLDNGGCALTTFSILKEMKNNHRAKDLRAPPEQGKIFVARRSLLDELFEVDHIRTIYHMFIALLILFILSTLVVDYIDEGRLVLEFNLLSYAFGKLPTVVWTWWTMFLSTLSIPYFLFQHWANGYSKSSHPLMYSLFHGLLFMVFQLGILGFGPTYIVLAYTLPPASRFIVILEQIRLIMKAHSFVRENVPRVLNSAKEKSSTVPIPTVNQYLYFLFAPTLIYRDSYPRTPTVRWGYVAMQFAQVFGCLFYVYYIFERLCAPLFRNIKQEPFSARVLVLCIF
Values of IC50 strictly less than 50 nM map to true (1), and values of at least 50 nM map to false (0).

structureAsSmiles | class
CC(C)c1cccc(C(C)C)c1NC(=O)Nc1nc2ccccc2n1-c1ncccc1Cl | false (0)
CN(C)c1cccc(OCCCn2cnc(-c3ccccc3)c2)c1NC(=O)NC1CCCCC1 | false (0)
CC(C)c1cccc(C(C)C)c1NC(=O)NCC1(c2ccc(C(C)(C)C)cc2)CCCC1 | false (0)
CCCCCNC(=O)Nc1c(OCCCn2cnc(-c3ccc(OC)cc3)c2)c(Br)cc(Br)c1N(C)C | false (0)
CC(C)c1cccc(C(C)C)c1NC(=O)Nc1nc2ccccc2n1-c1ccccc1Cl | true (1)

Ask: # check: IC50 < 50 nM for CCCCCNC(=O)Nc1c(OCCCn2cnc(-c3cccc4ccccc34)c2)cccc1N(C)C
Reply: false (0)

Ask: # check: IC50 < 50 nM for CC(C)c1cccc(C(C)C)c1NC(=O)NCC1(c2ccc(N)cc2)CCCC1
Reply: true (1)

Ask: # check: IC50 < 50 nM for CC(C)c1cccc(C(C)C)c1NC(=O)NCC1(c2cccc(CN3CCN(C)CC3)c2)CCCC1
Reply: true (1)

Ask: # check: IC50 < 50 nM for CC(C)c1cccc(C(C)C)c1NC(=O)NCC1(c2ccc(Br)cc2)CCCC1
Reply: true (1)

Ask: # check: IC50 < 50 nM for Cc1cccc(C2(CNC(=O)Nc3c(C(C)C)cccc3C(C)C)CCCC2)c1
Reply: true (1)

Ask: # check: IC50 < 50 nM for Cc1ccccc1-n1c(NC(=O)Nc2c(C(C)C)cccc2C(C)C)nc2ccccc21
Reply: true (1)
